melting point values for the molecules below.
Readout Label: melting point

[[record]]
molecule = "O=C(Nc1ccc(O)cc1)c1cc(O)cc(O)c1"
test_result = "266 °C"

[[record]]
molecule = "CCC(CC)c1ccc(Cl)c2nc3n(c12)CCCCN3c1cnc(N(C)C)cc1C"
test_result = "156 to 157 °C"

[[record]]
molecule = "COC(=O)C1c2ccc(OCc3ccccc3)cc2CCN1CC(=O)N1CCC(c2ccccc2)CC1 (stereo not given)"
test_result = "112 to 114 °C"

[[record]]
molecule = "COc1ccccc1N1CCN(CCNC(=O)CCN2CC=C(c3c[nH]c4cc(F)ccc34)CC2)CC1"
test_result = "175 to 177 °C"

[[record]]
molecule = "N#Cc1ccc(Cl)c(N=Cc2ccccc2O)c1"
test_result = "147 to 148 °C"

[[record]]
molecule = "COc1ccc2c(c1)CC(=O)c1sccc1C2=C1CCN(C)CC1"
test_result = "157 to 158 °C"

[[record]]
molecule = "CC(C)(C(=O)O)c1ccc(C(=O)Nc2cn3cc(-c4cn[nH]c4)ccc3n2)cc1"
test_result = "306 to 307 °C"

[[record]]
molecule = "Nc1nc(Cl)nc(Cl)c1[N+](=O)[O-]"
test_result = "161 to 162 °C"

[[record]]
molecule = "N#Cc1sc2ncccc2c1Cl"
test_result = "144 to 145 °C"

[[record]]
molecule = "COC(=O)CCc1ccc(OCC(C)NCC(O)c2cccc(Cl)c2)cc1 (stereo not given)"
test_result = "65 to 73 °C"


---

Readout Label: melting point

[[record]]
molecule = "CCC(O)CN1CCN(C2Cc3ccc(F)cc3Sc3ccc(N)cc32)CC1 (centres undefined)"
test_result = "184 to 186 °C"

[[record]]
molecule = "CC(C)(C)OC(=O)c1ncn2c1[C@@H]1CCCN1C(=O)c1c-2cccc1[N+](=O)[O-]"
test_result = "231 to 233 °C"

[[record]]
molecule = "O=C(Nc1ccc(N2CCN(C(=O)Nc3ccc(C(=O)O)cc3Cl)CC2)cc1)Nc1ccccc1F"
test_result = "250 to 253 °C"

[[record]]
molecule = "CC(=O)OC1CSC(Oc2cncc(-c3ncccc3C)c2)C(OC(C)=O)C1OC(C)=O (centres undefined)"
test_result = "148 to 150 °C"

[[record]]
molecule = "O=C1CSc2nc(C34CC5CC(CC(C5)C3)C4)cn21"
test_result = "130 to 132 °C"

[[record]]
molecule = "CC(C)n1nc(-c2cnc(N)nc2-c2ccccc2)ccc1=O"
test_result = "214 to 215 °C"

[[record]]
molecule = "Cc1cc(-n2ccnc2)c2cccc(OCc3c(Cl)ccc(S(=O)(=O)N4CCC[C@H]4C(=O)O)c3Cl)c2n1"
test_result = "172 °C"

[[record]]
molecule = "CCOC(=O)CON(CC)C(=S)Nc1ccccc1C(C)C"
test_result = "57 to 58 °C"

[[record]]
molecule = "CCc1nc2c(C)cc(C)nc2n1Cc1ccc(C2(C(=O)O)CCOCC2)s1"
test_result = "214 to 215 °C"


---

Readout Label: melting point

[[record]]
smiles_representation = "COc1ccccc1C(=O)Nc1ccc(-n2nc(C(F)(F)F)cc2C(F)(F)F)cc1"
test_result = "100 to 102 °C"

[[record]]
smiles_representation = "Fc1ccc(-c2[nH]c(C3CCN(Cc4ccccc4)CC3)nc2-c2ccncc2)cc1"
test_result = "212 to 215 °C"

[[record]]
smiles_representation = "CCOC(=O)c1cnn2c(C3CC3)cc(-c3ccc(C(F)(F)F)cc3)cc12"
test_result = "117 °C"

[[record]]
smiles_representation = "CCCCCCCCc1sc(NC(=O)c2cc3cc(C)cc(C)c3n2Cc2cccc(C(=O)O)c2)nc1-c1cc(OC)c(Cl)cc1OC"
test_result = "195 to 197 °C"


---

melting point values for the molecules below.
Readout Label: melting point

[[record]]
molecule = "N#Cc1ccc(N2C[C@@H]3[C@H](O)CCN3C2=O)c2ccccc12"
test_result = "226 to 228 °C"

[[record]]
molecule = "CCC(C)(N=NC(C)(CC)NC(=O)NC1CCCCC1)NC(=O)NC1CCCCC1 (stereo not given)"
test_result = "110 to 113 °C"

[[record]]
molecule = "Cc1cc(Br)c(Cl)cc1Cl"
test_result = "82.5 to 84 °C"

[[record]]
molecule = "CC(OP(=O)(c1ccccc1)c1ccccc1)c1ccccc1C(C)OP(=O)(c1ccccc1)c1ccccc1 (stereo not given)"
test_result = "147 to 148 °C"

[[record]]
molecule = "CCOC(=O)Cc1cc2ccc(O)cc2oc1=O"
test_result = "168 to 170 °C"

[[record]]
molecule = "CCc1nc2c(N)nc3c(c2n1CC(C)(C)OCCS(C)(=O)=O)CCCC3"
test_result = "225 to 227 °C"

[[record]]
molecule = "CC1(c2ccc3c(c2)CC(=O)N3CC(F)(F)F)OCCO1"
test_result = "87 to 89 °C"

[[record]]
molecule = "N#CN=C(Oc1ccccc1)N1CCCCC1"
test_result = "85.7 °C"

[[record]]
molecule = "CCCCCCc1nc2c(N)nc3ccccc3c2n1CCCCNC(=O)Nc1ccccc1"
test_result = "170 to 172 °C"

[[record]]
molecule = "Nn1nc(-c2ccc(Cl)cc2)cc1OCCN1CCOCC1"
test_result = "120 to 121 °C"

[[record]]
molecule = "CC(=O)NCCC1CCc2ccc3nc(CCc4ccccc4)oc3c21 (stereo not given)"
test_result = "85 to 87 °C"

[[record]]
molecule = "COc1cc(C(C)=O)ccc1OCCCCN1CCN(c2nsc3ccccc23)CC1"
test_result = "114 to 116 °C"

[[record]]
molecule = "CC(=O)N(C)CC(C)c1ccncc1 (stereo not given)"
test_result = "83 to 88 °C"

[[record]]
molecule = "O=C1N(Cc2cc3cccc(F)c3o2)c2ccccc2C12COc1cc3c(cc12)CCO3 (stereo not given)"
test_result = "192 to 193 °C"

[[record]]
molecule = "Cn1c(=O)n(-c2cc(N)c(Cl)cc2F)c(=S)n1C"
test_result = "208 °C"

[[record]]
molecule = "O=C(O)c1ccccc1S(=O)(=O)c1cc(Cl)ccc1C(=O)O"
test_result = "276 to 277 °C"

[[record]]
molecule = "O=C(O)CCC(=O)CC(=O)c1cccnc1"
test_result = "156 to 158 °C"

[[record]]
molecule = "O=C(CCN1CCN(c2cccc3[nH]ccc23)CC1)c1csc2ccccc12"
test_result = "83 to 85 °C"

[[record]]
molecule = "O=C(O)CCC(=NOCc1ccc(OCc2cc(-c3ccccc3)on2)cc1)c1ccccc1"
test_result = "100 to 101 °C"

[[record]]
molecule = "C=CCOc1ccc(C(=O)C=Cc2cccnc2)c(O)c1"
test_result = "115 to 117 °C"

[[record]]
molecule = "CC(C)Cc1nn(C)c(=O)c2cc(Cc3cccnc3)sc12"
test_result = "118 to 119 °C"

[[record]]
molecule = "CS(=O)(=O)c1ccc(C(=O)c2c(O)cc(Cl)cc2Cl)c(Cl)c1"
test_result = "123 to 126 °C"

[[record]]
molecule = "C=CCCCCCCCCCOc1ccc(-c2ccc(OCCCCCCCCCCCBr)cc2)cc1"
test_result = "93 to 94 °C"

[[record]]
molecule = "Cc1cccc(-c2nc(NC(=O)c3ccc(C(=O)O)cc3)sc2-c2ccncn2)c1"
test_result = "380 to 381 °C"

[[record]]
molecule = "CC(C)C[C@H](NC(=O)COc1ccc(Cl)cc1)C(=O)N[C@@H](Cc1ccccc1)C(=O)CSCc1ccco1"
test_result = "116 to 117 °C"

[[record]]
molecule = "COC(=O)C1=CCN=C(c2ccccc2F)c2cc(Cl)ccc21"
test_result = "106 to 107 °C"

[[record]]
molecule = "CCc1cc(C(=O)c2ccccc2Cl)c(-n2c(CC)nnc2CNC(=O)c2ccc(Cl)c(Cl)c2)s1"
test_result = "136 to 138 °C"

[[record]]
molecule = "CCOC(=O)c1c(C(=O)OCC)c(-c2ccc(OC(C)C)c(OC(C)C)c2)c2cc3c(cc2c1O)OCO3"
test_result = "123 to 124 °C"

[[record]]
molecule = "COCCN1CCn2c1nc(C(=O)NCc1ccc(F)cc1)c(O)c2=O"
test_result = "166 °C"

[[record]]
molecule = "NC(=O)c1nc(-c2cccnc2O)nc2c1[nH]c(=O)n2-c1ccccc1C(F)(F)F"
test_result = "331 to 335 °C"

[[record]]
molecule = "Cc1ncc2cc(-c3cc(C(F)(F)F)cc(C(F)(F)F)c3)ccc2n1"
test_result = "208 to 210 °C"

[[record]]
molecule = "CCOC(=O)c1c(-c2cccc(F)c2)c(C#N)n2c1CN(C(=O)OC(C)(C)C)CC2"
test_result = "129 to 131 °C"

[[record]]
molecule = "CNC(=O)c1cccc2cccc(NC(=O)c3ccc(F)c(F)c3)c12"
test_result = "> 250 °C"

[[record]]
molecule = "COC(=O)c1ccc(OC2=C3N=C4CCCCC4=C3C(Cc3ccc(C)cc3)C=C2)o1 (stereo not given)"
test_result = "80 to 81 °C"

[[record]]
molecule = "CCCNC(=O)c1nc(-c2ccccc2)c(-c2ccc(=O)n(CCC)n2)s1"
test_result = "121 to 122 °C"

[[record]]
molecule = "Cc1ccc(-c2cc(CO)c3[nH]c(=O)ccc3c2)c(C)n1"
test_result = "218 to 221 °C"

[[record]]
molecule = "COC(=O)c1cc(C(=O)N(C)CC(=O)N(C)C)c2cc(Cc3ccc(F)cc3)cnc2c1O"
test_result = "99 to 100 °C"

[[record]]
molecule = "CCOC(=S)C(C)Cc1ccc(OCC(=O)O)cc1 (stereo not given)"
test_result = "77 to 78 °C"

[[record]]
molecule = "CC(C)(C)NC1=NS(=O)(=O)c2ccc(Cl)cc2N1"
test_result = "291 to 294 °C"

[[record]]
molecule = "CN(C)C=C1CCN(c2ccccc2)c2ccccc2C1=O"
test_result = "131 to 133 °C"

